Every entry's value here was drawn from patent US20260144882A1.

# Test System: T1, human Nectin-4 extracellular antigen hNectin-4-His (human, UniProt Q96NY8 32-349)
# T1 construct: C-terminal 8xHis tag included
# T1 sequence: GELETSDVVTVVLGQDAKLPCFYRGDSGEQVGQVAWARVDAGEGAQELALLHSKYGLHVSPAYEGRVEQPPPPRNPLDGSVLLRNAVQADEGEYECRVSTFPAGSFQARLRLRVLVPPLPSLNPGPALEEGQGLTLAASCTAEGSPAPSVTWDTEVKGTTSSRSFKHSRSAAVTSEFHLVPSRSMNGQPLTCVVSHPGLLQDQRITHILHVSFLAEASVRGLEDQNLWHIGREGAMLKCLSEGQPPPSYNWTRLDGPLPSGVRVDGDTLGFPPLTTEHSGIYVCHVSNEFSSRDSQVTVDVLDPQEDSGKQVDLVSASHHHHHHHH
# Protocol: ELISA, coated hNectin-4-His
Quantity Measured: EC50
A bare number is not enough; add the unit after it.

Task item: Using the record for antibody 10F4-1F1 (antibody, human IgG1, kappa, V domains shown) VH: EVQLVESGGGLVQPGGSLRLSCAASGFSFSNYWMSWVRQAPGKGLEWVSAISPGDGTIFYADSVKGRFTISRDNSKNTLYLQMNSLRAEDTAVYYCAREYSDVVDYVSVRTPLDYWGQGTLVTVSS VL: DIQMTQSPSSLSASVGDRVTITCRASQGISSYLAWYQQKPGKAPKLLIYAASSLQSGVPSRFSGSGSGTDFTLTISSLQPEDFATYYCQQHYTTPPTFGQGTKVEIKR , report its EC50.
Reply: 0.057 µg/mL
